assay: In vivo tissue distribution test; design: species or system ICR mice; settings: mouse, spleen, po; ICR mice, p.o. 100 mg/kg, 3 hr; read-out: Spleen concentration
RECORDED ENDPOINT: concentration at 3 h (ng/g)
Entry rule: numbers only, all in ng/g.

CON=C1CN(c2nc3c(cc2F)c(=O)c(C(=O)O)cn3C2CC2)C[C@@]1(C)CN.Cl [Hydrochloride (Comparative Example 3)] = 59800

Here's the next entry for you.
Recorded concentration at 3 h for CO/N=C1/CN(c2nc3c(cc2F)c(=O)c(C(=O)O)cn3C2CC2)C[C@@]1(C)CN [L-aspartate (Example 1)] , please?
57600

====

Recorded Tmax values for a group of molecules are listed next.
test: In vivo pharmacokinetic test; design: species or system SD rats; conditions: SD, rat, plasma, iv; rats, i.v. 10 mg/kg
The reply should contain only the number, in h.

CO/N=C1/CN(c2nc3c(cc2F)c(=O)c(C(=O)O)cn3C2CC2)C[C@@]1(C)CN [L-aspartate (Example 1)] = 0

Given the entry CON=C1CN(c2nc3c(cc2F)c(=O)c(C(=O)O)cn3C2CC2)C[C@@]1(C)CN.Cl [Hydrochloride (Comparative Example 3)] , report its measured Tmax.
0

====

experiment: In vivo tissue distribution test; design: species or system ICR mice; details: ICR, mouse, lung, po, 100 mg/kg; read-out: P ratio Lung
RECORDED ENDPOINT: Kp
// response body must contain only the number

Sample CON=C1CN(c2nc3c(cc2F)c(=O)c(C(=O)O)cn3C2CC2)C[C@@]1(C)CN.Cl [Hydrochloride (Comparative Example 3)] — what was its Kp?
5.59

// next record CO/N=C1/CN(c2nc3c(cc2F)c(=O)c(C(=O)O)cn3C2CC2)C[C@@]1(C)CN [L-aspartate (Example 1)]
6.01

====

Experiment: In vivo tissue distribution test
Design: species or system ICR mice
Settings: mouse, brain, po; ICR mice, p.o. 100 mg/kg, 5 hr; read-out: Brain concentration
Procedure: An in vivo tissue distribution test was performed in order to confirm the degree of drug distribution of the L-aspartate and hydrochloride according to the present invention in each organ. After 8-week-old ICR mice were purchased and adapted in the laboratory, each salt was orally administered to the mouse at a dose of 100 mg/kg. […] Then, P ratio is a ratio of permeation into muscle and calculated as intramuscular AUC/intraplasmic AUC.
This listing pairs compounds with measured concentration at 5 h.

CO/N=C1/CN(c2nc3c(cc2F)c(=O)c(C(=O)O)cn3C2CC2)C[C@@]1(C)CN [L-aspartate (Example 1)] = 1520 ng/g

Item CON=C1CN(c2nc3c(cc2F)c(=O)c(C(=O)O)cn3C2CC2)C[C@@]1(C)CN.Cl [Hydrochloride (Comparative Example 3)] has what recorded concentration at 5 h?
1600 ng/g

====

test: In vivo tissue distribution test; parameters: species or system ICR mice; conditions: mouse, plasma, po; ICR mice, p.o. 100 mg/kg, 1.5 hr; read-out: Plasma concentration
RECORDED ENDPOINT: concentration at 1.5 h
# answer = value followed by unit

CON=C1CN(c2nc3c(cc2F)c(=O)c(C(=O)O)cn3C2CC2)C[C@@]1(C)CN.Cl [Hydrochloride (Comparative Example 3)] = 12100 ng/mL

I have this compound here, CO/N=C1/CN(c2nc3c(cc2F)c(=O)c(C(=O)O)cn3C2CC2)C[C@@]1(C)CN [L-aspartate (Example 1)] , and I need its recorded concentration at 1.5 h.
10700 ng/mL
